# Test system: S. pneumonie
# METHOD DESCRIPTION: In vitro antibacterial assay (zone of inhibition, MIC)
# Type: cell-based, Streptococcus pneumonie
# CONDITION SET: Streptococcus
PARAMETER: zone of inhibition at 50 µg/mL (mm)
Only the number, expressed in mm, is required.

CCNC(=S)NN=C(C)c1cc2ccc(OC)cc2oc1=O	11.2
CNC(=S)NN=C(C)c1cc2ccc(OC)cc2oc1=O	12.1
COc1ccc2cc(C(C)=NNC(N)=S)c(=O)oc2c1	12.4

From here, focus on the item given below.
Looking up `COc1ccc2cc(/C(C)=N\NC(=S)Nc3ccccc3)c(=O)oc2c1` , I see its zone of inhibition at 50 µg/mL listed as 12.2

====

# TARGET OR TEST SYSTEM: BSA (Bos taurus)
# Sequence (P02769 25-607): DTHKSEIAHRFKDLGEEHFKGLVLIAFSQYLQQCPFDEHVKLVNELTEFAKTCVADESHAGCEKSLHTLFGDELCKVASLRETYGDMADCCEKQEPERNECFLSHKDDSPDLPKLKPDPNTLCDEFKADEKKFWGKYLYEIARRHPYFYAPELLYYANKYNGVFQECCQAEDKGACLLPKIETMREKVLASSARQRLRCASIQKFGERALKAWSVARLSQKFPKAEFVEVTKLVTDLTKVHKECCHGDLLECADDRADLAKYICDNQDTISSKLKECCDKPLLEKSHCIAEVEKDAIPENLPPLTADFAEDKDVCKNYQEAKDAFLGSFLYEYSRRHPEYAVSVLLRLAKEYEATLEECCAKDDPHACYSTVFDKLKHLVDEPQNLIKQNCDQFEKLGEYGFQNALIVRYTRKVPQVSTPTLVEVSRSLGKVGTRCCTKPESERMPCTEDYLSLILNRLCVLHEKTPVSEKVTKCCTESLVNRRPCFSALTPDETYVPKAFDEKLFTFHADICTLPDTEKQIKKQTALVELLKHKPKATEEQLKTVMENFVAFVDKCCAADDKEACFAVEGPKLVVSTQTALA
PARAMETER: Kd (µM)
Only the number, expressed in µM, is required.

See these solved cases before continuing.
CCNC(=S)NN=C(C)c1cc2ccc(OC)cc2oc1=O	70.9
COc1ccc2cc(C(C)=NNC(N)=S)c(=O)oc2c1	507
CNC(=S)NN=C(C)c1cc2ccc(OC)cc2oc1=O	333

From here, focus on the item given below.
Note to self: Kd of `COc1ccc2cc(/C(C)=N\NC(=S)Nc3ccccc3)c(=O)oc2c1` with BSA (Bos taurus) was 900

====

# System: CT-DNA
# METHOD DESCRIPTION: EB-DNA competitive binding (fluorescence quenching)
# Parameters: species or system calf
# CONDITION SET: % of the initial fluorescence intensity, compounds 10–100 μM
Listed compounds paired with reported quenching of the emission band of DNA-bound EB
Only the number, expressed in %, is required.

COc1ccc2[c]3c(c(=O)oc2c1)C(C)=[N+]1N=C(Nc2ccccc2)[S][Ru-4]31([C]#[O+])([P+](c1ccccc1)(c1ccccc1)c1ccccc1)[P+](c1ccccc1)(c1ccccc1)c1ccccc1 [Complex 4, [Ru(7MAC-ptsc)(CO)(PPh3)2]]	28.92
CCNC1=N[N+]2=C(C)c3[c](c4ccc(OC)cc4oc3=O)[Ru-4]2([C]#[O+])([P+](c2ccccc2)(c2ccccc2)c2ccccc2)([P+](c2ccccc2)(c2ccccc2)c2ccccc2)[S]1 [Complex 3, [Ru(7MAC-etsc)(CO)(PPh3)2]]	36.99
COc1ccc2[c]3c(c(=O)oc2c1)C(C)=[N+]1N=C(N)[S][Ru-4]31([C]#[O+])([P+](c1ccccc1)(c1ccccc1)c1ccccc1)[P+](c1ccccc1)(c1ccccc1)c1ccccc1 [Complex 1, [Ru(7MAC-tsc)(CO)(PPh3)2]]	27.83

From here, focus on the item given below.
Looking up CNC1=N[N+]2=C(C)c3[c](c4ccc(OC)cc4oc3=O)[Ru-4]2([C]#[O+])([P+](c2ccccc2)(c2ccccc2)c2ccccc2)([P+](c2ccccc2)(c2ccccc2)c2ccccc2)[S]1 [Complex 2, [Ru(7MAC-mtsc)(CO)(PPh3)2]] , I see its quenching of the emission band of DNA-bound EB listed as 36.67

====

Listed compounds paired with reported Stern–Volmer KSV
# TARGET OR TEST SYSTEM: HSA (Homo sapiens)
# Construct: purchased HiMedia (Mumbai, India)
# Sequence (P02768 25-609): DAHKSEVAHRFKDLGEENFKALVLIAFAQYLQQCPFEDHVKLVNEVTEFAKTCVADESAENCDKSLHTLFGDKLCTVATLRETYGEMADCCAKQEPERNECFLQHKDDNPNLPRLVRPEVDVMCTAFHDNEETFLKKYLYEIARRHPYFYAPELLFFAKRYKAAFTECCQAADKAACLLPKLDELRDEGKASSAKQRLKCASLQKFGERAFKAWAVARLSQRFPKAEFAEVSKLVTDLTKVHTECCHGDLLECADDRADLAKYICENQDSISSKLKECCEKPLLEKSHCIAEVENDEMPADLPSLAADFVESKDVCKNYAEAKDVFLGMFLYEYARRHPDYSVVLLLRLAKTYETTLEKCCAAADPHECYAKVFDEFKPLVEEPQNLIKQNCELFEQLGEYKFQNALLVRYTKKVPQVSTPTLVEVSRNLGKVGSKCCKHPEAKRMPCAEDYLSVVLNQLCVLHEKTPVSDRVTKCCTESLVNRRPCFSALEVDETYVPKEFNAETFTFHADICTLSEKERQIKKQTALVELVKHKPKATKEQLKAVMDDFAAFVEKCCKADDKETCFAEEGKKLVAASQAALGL
# METHOD DESCRIPTION: HSA tryptophan fluorescence quenching
# Assay type: binding
# CONDITION SET: HSA

See these solved cases before continuing.
CCNC1=N[N+]2=C(C)c3[c](c4ccc(OC)cc4oc3=O)[Ru-4]2([C]#[O+])([P+](c2ccccc2)(c2ccccc2)c2ccccc2)([P+](c2ccccc2)(c2ccccc2)c2ccccc2)[S]1 [Complex 3, [Ru(7MAC-etsc)(CO)(PPh3)2]]	1.189 ± 0.030 × 10^4 M^−1
COc1ccc2[c]3c(c(=O)oc2c1)C(C)=[N+]1N=C(N)[S][Ru-4]31([C]#[O+])([P+](c1ccccc1)(c1ccccc1)c1ccccc1)[P+](c1ccccc1)(c1ccccc1)c1ccccc1 [Complex 1, [Ru(7MAC-tsc)(CO)(PPh3)2]]	0.741 ± 0.010 × 10^4 M^−1
COc1ccc2[c]3c(c(=O)oc2c1)C(C)=[N+]1N=C(Nc2ccccc2)[S][Ru-4]31([C]#[O+])([P+](c1ccccc1)(c1ccccc1)c1ccccc1)[P+](c1ccccc1)(c1ccccc1)c1ccccc1 [Complex 4, [Ru(7MAC-ptsc)(CO)(PPh3)2]]	0.675 ± 0.008 × 10^4 M^−1

From here, focus on the item given below.
Looking up CNC1=N[N+]2=C(C)c3[c](c4ccc(OC)cc4oc3=O)[Ru-4]2([C]#[O+])([P+](c2ccccc2)(c2ccccc2)c2ccccc2)([P+](c2ccccc2)(c2ccccc2)c2ccccc2)[S]1 [Complex 2, [Ru(7MAC-mtsc)(CO)(PPh3)2]] , I see its Stern–Volmer KSV listed as 1.088 ± 0.030 × 10^4 M^−1

====

# Test system: Aspergillus fumigatus
# METHOD DESCRIPTION: In vitro antifungal assay (zone of inhibition, MIC)
# Assay type: cell-based
PARAMETER: Minimum inhibitory concentration (MIC); head: IC50 VALUES (µM)
Only the number, expressed in µM, is required.

[C-]#[O+].[Cl][RuH].c1ccc(P(c2ccccc2)c2ccccc2)cc1.c1ccc(P(c2ccccc2)c2ccccc2)cc1.c1ccc(P(c2ccccc2)c2ccccc2)cc1 [[RuHClCO(PPh3)3], reference compound]	29.75

From here, focus on the item given below.
Looking up COc1ccc2[c]3c(c(=O)oc2c1)C(C)=[N+]1N=C(Nc2ccccc2)[S][Ru-4]31([C]#[O+])([P+](c1ccccc1)(c1ccccc1)c1ccccc1)[P+](c1ccccc1)(c1ccccc1)c1ccccc1 [Complex 4, [Ru(7MAC-ptsc)(CO)(PPh3)2]] , I see its Minimum inhibitory concentration (MIC); head: IC50 VALUES listed as 14.45

====

# System: Aspergillus niger
# METHOD DESCRIPTION: In vitro antifungal assay (zone of inhibition, MIC)
# Format: cell-based
PARAMETER: Minimum inhibitory concentration (MIC); head: IC50 VALUES (µM)
Only the number, expressed in µM, is required.

See these solved cases before continuing.
COc1ccc2[c]3c(c(=O)oc2c1)C(C)=[N+]1N=C(Nc2ccccc2)[S][Ru-4]31([C]#[O+])([P+](c1ccccc1)(c1ccccc1)c1ccccc1)[P+](c1ccccc1)(c1ccccc1)c1ccccc1 [Complex 4, [Ru(7MAC-ptsc)(CO)(PPh3)2]]	14.80
CNC1=N[N+]2=C(C)c3[c](c4ccc(OC)cc4oc3=O)[Ru-4]2([C]#[O+])([P+](c2ccccc2)(c2ccccc2)c2ccccc2)([P+](c2ccccc2)(c2ccccc2)c2ccccc2)[S]1 [Complex 2, [Ru(7MAC-mtsc)(CO)(PPh3)2]]	14.67
[C-]#[O+].[Cl][RuH].c1ccc(P(c2ccccc2)c2ccccc2)cc1.c1ccc(P(c2ccccc2)c2ccccc2)cc1.c1ccc(P(c2ccccc2)c2ccccc2)cc1 [[RuHClCO(PPh3)3], reference compound]	31.63
CCNC1=N[N+]2=C(C)c3[c](c4ccc(OC)cc4oc3=O)[Ru-4]2([C]#[O+])([P+](c2ccccc2)(c2ccccc2)c2ccccc2)([P+](c2ccccc2)(c2ccccc2)c2ccccc2)[S]1 [Complex 3, [Ru(7MAC-etsc)(CO)(PPh3)2]]	14.44

From here, focus on the item given below.
Looking up COc1ccc2[c]3c(c(=O)oc2c1)C(C)=[N+]1N=C(N)[S][Ru-4]31([C]#[O+])([P+](c1ccccc1)(c1ccccc1)c1ccccc1)[P+](c1ccccc1)(c1ccccc1)c1ccccc1 [Complex 1, [Ru(7MAC-tsc)(CO)(PPh3)2]] , I see its Minimum inhibitory concentration (MIC); head: IC50 VALUES listed as 15.89

====

# System: Aspergillus niger
# METHOD DESCRIPTION: In vitro antifungal assay (zone of inhibition, MIC)
# Type: cell-based
# CONDITION SET: 100 µg/ml
PARAMETER: Zone of inhibition (mm)
Only the number, expressed in mm, is required.

See these solved cases before continuing.
[C-]#[O+].[Cl][RuH].c1ccc(P(c2ccccc2)c2ccccc2)cc1.c1ccc(P(c2ccccc2)c2ccccc2)cc1.c1ccc(P(c2ccccc2)c2ccccc2)cc1 [[RuHClCO(PPh3)3], reference compound]	15.14
CNC1=N[N+]2=C(C)c3[c](c4ccc(OC)cc4oc3=O)[Ru-4]2([C]#[O+])([P+](c2ccccc2)(c2ccccc2)c2ccccc2)([P+](c2ccccc2)(c2ccccc2)c2ccccc2)[S]1 [Complex 2, [Ru(7MAC-mtsc)(CO)(PPh3)2]]	19.63

Looking up CCNC1=N[N+]2=C(C)c3[c](c4ccc(OC)cc4oc3=O)[Ru-4]2([C]#[O+])([P+](c2ccccc2)(c2ccccc2)c2ccccc2)([P+](c2ccccc2)(c2ccccc2)c2ccccc2)[S]1 [Complex 3, [Ru(7MAC-etsc)(CO)(PPh3)2]] , I see its Zone of inhibition listed as 18.43

Looking up COc1ccc2[c]3c(c(=O)oc2c1)C(C)=[N+]1N=C(Nc2ccccc2)[S][Ru-4]31([C]#[O+])([P+](c1ccccc1)(c1ccccc1)c1ccccc1)[P+](c1ccccc1)(c1ccccc1)c1ccccc1 [Complex 4, [Ru(7MAC-ptsc)(CO)(PPh3)2]] , I see its Zone of inhibition listed as 17.66

Looking up COc1ccc2[c]3c(c(=O)oc2c1)C(C)=[N+]1N=C(N)[S][Ru-4]31([C]#[O+])([P+](c1ccccc1)(c1ccccc1)c1ccccc1)[P+](c1ccccc1)(c1ccccc1)c1ccccc1 [Complex 1, [Ru(7MAC-tsc)(CO)(PPh3)2]] , I see its Zone of inhibition listed as 17.52
